# Tested on: CAL-72 (Osteosarcoma)
# method-notes: combination Emax (second highest fraction inhibited in the dose matrix, 72 h); higher = more inhibition; extreme values may be limits of the assay
# Lookup of reported combination Emax keyed by entry
Answer field: number only, no words.

Below, each entry is followed by its recorded combination Emax result.
>  <compound>
C=CCn1c(=O)c2cnc(Nc3ccc(N4CCN(C)CC4)cc3)nc2n1-c1cccc(C(C)(C)O)n1 [AZD1775] + O=C(c1cc(Cc2n[nH]c(=O)c3ccccc23)ccc1F)N1CCN(C(=O)C2CC2)CC1 [Olaparib] (first compound max 1 µM, partner max 10 µM)

>  <target-or-system>
CAL-72 (Osteosarcoma)

>  <combination Emax>
0.756

$$$$
>  <compound>
CCN(CCO)CCCOc1ccc2c(Nc3cc(CC(=O)Nc4cccc(F)c4)[nH]n3)ncnc2c1 [AZD2811] + O=C(c1cc(Cc2n[nH]c(=O)c3ccccc23)ccc1F)N1CCN(C(=O)C2CC2)CC1 [Olaparib] (first compound max 1 µM, 7x7, partner max 10 µM)

>  <target-or-system>
CAL-72 (Osteosarcoma)

>  <combination Emax>
0.322

$$$$
>  <compound>
Cc1nc(-c2cn3c(n2)-c2ccc(-c4cnn(C(C)(C)C(N)=O)c4)cc2OCC3)n(C(C)C)n1 [Taselisib] + O=C(Nc1ccc2[nH]nc(-c3ccncc3)c2c1)[C@@H]1CCN(CC(=O)N2CCN(c3ccc(-c4ncccn4)cc3)CC2)C1 [SCH772984] (first compound max 10 µM, 7x7, partner max 5 µM)

>  <target-or-system>
CAL-72 (Osteosarcoma)

>  <combination Emax>
0.438

$$$$

// switching to the query compound
GET /value?item= C[C@@H](Nc1cc(F)cc(F)c1)c1cc(C(=O)N(C)C)cc2c(=O)cc(N3CCOCC3)oc12 [AZD8186] + CC(=O)c1c(C)c2cnc(Nc3ccc(N4CCNCC4)cn3)nc2n(C2CCCC2)c1=O [Palbociclib] (first compound max 10 µM, 7x7, partner max 10 µM) &field=combination Emax returns 0.398

###

# System: SNU-449 (Hepatocellular Carcinoma)
# method-notes: combination Emax (second highest fraction inhibited in the dose matrix, 72 h); higher = more inhibition; extreme values may be limits of the assay
# Lookup of reported combination Emax keyed by entry
Answer field: number only, no words.

Below, each entry is followed by its recorded combination Emax result.
>  <molecule>
C[C@@H](Nc1cc(F)cc(F)c1)c1cc(C(=O)N(C)C)cc2c(=O)cc(N3CCOCC3)oc12 [AZD8186] + C1CN(CCC1(C(=O)N[C@@H](CCO)C2=CC=C(C=C2)Cl)N)C3=NC=NC4=C3C=CN4 [AZD5363] (first compound max 10 µM, 7x7, partner max 10 µM)

>  <combination Emax>
0.198

$$$$
>  <molecule>
CC1(C)CCC(CN2CCN(c3ccc(C(=O)NS(=O)(=O)c4ccc(NCC5CCOCC5)c([N+](=O)[O-])c4)c(Oc4cnc5[nH]ccc5c4)c3)CC2)=C(c2ccc(Cl)cc2)C1 [Venetoclax] + Cc1cc2ncnn2cc1Nc1ncc2c(n1)n(C1CCOCC1)c(=O)n2C [AZD7648] (first compound max 1 µM, 7x7, partner max 10 µM)

>  <combination Emax>
0.229

$$$$

GET /value?item= CC(=O)c1c(C)c2cnc(Nc3ccc(N4CCNCC4)cn3)nc2n(C2CCCC2)c1=O [Palbociclib] + Cc1c2c(nn1C)CSCc1cc(n(C)n1)CSc1cc(c3ccccc3c1)OCCCc1c(C(=O)O)n(C)c3c-2c(Cl)ccc13 [AZD5991] (first compound max 10 µM, 7x7, partner max 1 µM) &field=combination Emax returns 0.335
